From: patent US20220259593A1

Test system: K562 CRISPRi cells
method.notes: Constant region variant library pooled growth screen, K562
Type: cell-based, human
protocol.conditions: sgRNA constant region variants; activity relative to the original, un-modified constant region cr995
test.readout: Mean relative activity
Enter a number only.

[
  {
    "molecule": "cr638 (nucleic acid, listed as DNA, chemistry not fully specified) guide: GTTTAAGAGCTAAGCTGGAAACAGCATAGCAAGCTTAAATAAGGGTACTCCGTTATCAACTTGAAAAAGTGGCACCGAGTCGGTGCT",
    "quantitative.result": 0.03012
  }
]

Could you now consider this next molecule?
The molecule identified as cr660 (nucleic acid, listed as DNA, chemistry not fully specified) guide: GTTTAAGAGCTAAGCTGGAAACAGCATAGCAAGTTTAAATAATGCTAGTCCGTTATCAACTTGAAAAAGTGGCACCGAGTCGGTGCT registered its Mean relative activity at 0.004102
